Where do these numbers come from? They come from PubChem BioAssay (NCI).

- Tested on: MDA-MB-468 breast
- protocol-notes: NCI-60 one-dose screen, 48 h
- experimental-context: 10 µM unless noted
This is part of a sample that, as a whole, favours compounds with a hit. Of some 83,000 tested, about 20% had one in any assay. Calls of active or inactive are those of the source. How the source made its calls: active means growth percent below 10; inactive means the rest.
Respond using exactly one of the listed classes: yes (1) (active), no (0) (inactive)

# example entries with known answers
>>> group_label("O=C1CSC(c2ccccc2O)N1c1nnc(Cn2ccnc2)o1 (stereo not drawn)")
"no (0)"
>>> group_label("C1=Cc2ccccc2N(c2nnc(-c3ccccc3)o2)c2ccccc21")
"no (0)"
>>> group_label("CC(C)C[C@H](NC(=O)Cn1ccc(NCc2ccccc2)cc1=O)B(O)O")
"yes (1)"
>>> group_label("c1ccc2c(-c3nc(-c4c[nH]c5ncccc45)cs3)c[nH]c2c1")
"no (0)"
>>> group_label("COc1ccc(/C=N\\Nc2nc(SCC(C)C)nc(-c3ccc(OC)cc3)c2C#N)cc1")
"no (0)"
>>> group_label("CC(C)(C)c1cc(C(=O)Nc2ccccc2C(=O)NCCN)cc(C(C)(C)C)c1")
"yes (1)"

### Prompt I would be grateful if you could indicate the recorded call for CC(C)/C=C/CC[C@](C)(O)[C@H]1CC[C@]2(C)[C@@H]1CC[C@@H]1[C@@]3(C)C/C(=C/c4cccc(C(F)(F)F)c4)C(=O)C(C)(C)[C@@H]3CC[C@]12C .
### Response no (0)

### Prompt Tell me the recorded outcome of this test for COc1cc2c(cc1OC)-c1ccc3cc4c(cc3c1N(CCCN1CCCCC1)C2)OCO4 .
### Response no (0)

---

- Tested on: MDA-MB-468 breast
- protocol-notes: NCI-60 one-dose screen, 48 h (100 = growth as untreated, 0 = no growth, -100 = all killed)
- experimental-context: 10 µM unless noted
Compounds without any hit were thinned out: in the full panel of roughly 83,000, 20% have a hit.
assay-endpoint: growth (%)
One number for each entry, in %.

Here are 4 molecules together with their reported answers.
>>> value("O=C1C(SCc2ccccc2)=C(Cl)CN1c1ccccc1")
79.7
>>> value("COc1ccc(NCc2cn(-c3ccc(C(=O)O)cc3)nc2-c2ccc(F)cc2)cc1C(F)(F)F")
65.1
>>> value("COc1ccc(/C=C(\\C(=O)NCc2cccnc2)S(=O)(=O)c2ccccc2)cc1OC")
1.86
>>> value("O=C(NCCCNS(=O)(=O)c1ccc(Cl)cc1)Nc1ccc(-n2cc(-c3ccncc3)c(-c3ccc(Cl)c(O)c3)n2)cc1")
47.6

Quick batch: growth for everything below.
1. COc1ccc2[nH]c(C(=O)OCc3ccc4c(Br)cc(Br)c(O)c4n3)cc2c1
2. O=C1/C(=C/N2N=C(c3ccc(Cl)cc3)CC2c2ccccc2O)SC(=S)N1c1cccc(C(F)(F)F)c1 (configuration not stated)
3. c1ccc2c(-c3nc4ccccc4[nH]3)cccc2c1
4. Cc1cc(N2CCCCC2)nc(NC2CCCC(Nc3ccnc4cc(Cl)ccc34)C2)n1 (configuration not stated)
5. Cc1cnc(C(=O)NNc2nc3sc4c(c3c(=O)[nH]2)C(C)CCC4)cn1 (configuration not stated)
6. CN1CCN(C(=O)[C@@]2(C)CC[C@]3(C)CC[C@]4(C)C(=CC[C@@H]5[C@@]6(C)CCC(=O)NC(C)(C)[C@@H]6CC[C@]54C)[C@@H]3C2)CC1
7. Cc1ccc[n+](CC(=O)c2cccc3ccccc23)c1

### Response
1: -77.4; 2: 62.2; 3: -15.3; 4: -77.6; 5: -10.4; 6: 13.5; 7: 80.2

---

Assignment: determine reported growth for the given compounds.
- Test system: MDA-MB-468 breast
- protocol-notes: NCI-60 one-dose screen, 48 h (100 = growth as untreated, 0 = no growth, -100 = all killed)
- experimental-context: 10 µM unless noted
- Procedure: Growth inhibition of the MDA-MB-468 human Breast tumor cell line is measured as a screen for anti-cancer activity. Cells are grown in 96 well plates and exposed to the test compound for 48 hours. Compounds are tested at a single concentration, which is 10^-5 M for most compounds. The reported endpoint is percent growth (GI% or GIPRCNT), where numbers from 0 - 100% represent growth inhibition, and numbers from -100% - 0 represent cell death. […]
About 83,000 compounds went through this panel and 20% of them were active in at least one assay; those are over-represented in the sample as a whole. Active and inactive are the calls of the source. The calls were made as follows: active = growth percent below 10; inactive = the rest.

>>> value("O=c1c2ccccc2oc2ccc(OCCCCCCN3CCCCCC3)cc12")
"20.2% (inactive)"
>>> value("Nc1n[nH]c(-c2cc(Cl)ccc2O)c1-c1ccccc1")
"83.5% (inactive)"
>>> value("O=C1OCC2=C1C(c1ccccc1)c1cc3c(cc1N2CCO)OCCO3 (configuration not stated)")
"-63.7% (active)"
>>> value("CC(=O)Oc1ccc(C(OC(C)=O)OC(C)=O)cc1")
"109% (inactive)"
>>> value("Oc1ccc(CN2CCC(N3CCCCC3)CC2)c2cccnc12")
"23.9% (inactive)"
>>> value("CCOC(=O)c1c(NC(=O)c2ccc(C(C)(C)C)cc2)sc2cc(OCCN3CCCCC3)ccc12")
"85.8% (inactive)"

Here are 6 compounds. What values of growth were reported for them?
1. Cc1cccc2nc3c(n12)C(=O)C(=O)c1ccccc1-3
2. CNc1nc(C)c(-c2nc(Nc3cccc(S(N)(=O)=O)c3)ncc2F)s1
3. CN1CCN(Cc2ccc(NC(=O)c3cncc(C#Cc4cncc5nccnc45)c3)cc2C(F)(F)F)CC1
4. O=c1nc2sc3nc4ccccc4cc3cc-2s1
5. COc1cc(/C=C/C(=O)/C=C(/C=C/c2ccc(OC(C)=O)c(OC)c2)OB(F)F)ccc1OC(C)=O
6. CC(=O)O[C@H]1CC[C@]2(C)[C@H]3CC=C4[C@@H]5CC(C)(C)CC[C@]5(C(=O)NCCNCCNCCN)CC[C@@]4(C)[C@]3(C)CC[C@H]2C1(C)C

### Response
79.9% (inactive)
-38.3% (active)
87% (inactive)
124% (inactive)
48.8% (inactive)
-14.5% (active)

---

- Test system: MDA-MB-468 breast
- protocol-notes: NCI-60 one-dose screen, 48 h (100 = growth as untreated, 0 = no growth, -100 = all killed)
- experimental-context: 10 µM unless noted
About 83,000 compounds went through this panel and 20% of them were active in at least one assay; those are over-represented in the sample as a whole. Calls of active or inactive are those of the source. The calls were made as follows: active = growth percent below 10; inactive = the rest.
assay-endpoint: growth

Below is a list of compounds. For each, state its recorded growth.
1. COc1ccc2c(OCc3nnc4ccc(-c5ccccc5)nn34)ccnc2c1
2. NS(=O)(=O)c1ccc(N2N=C(c3ccc(Br)cc3)CC2c2cn(-c3ccccc3)nc2-c2ccc(Cl)cc2)cc1 (configuration not stated)
3. CC(C)(C)c1ccc(N2CSC(=S)N(c3ccc(C(C)(C)C)cc3)C2)cc1
4. CCN(CC)CCCCNc1ccc(NCCCCN(CC)CC)c2c1C(=O)c1ccccc1C2=O
5. O=C1NN(C(=O)c2ccc(O)cc2)C(c2ccccc2)=N/C1=C\c1cn(-c2ccccc2)nc1-c1ccccc1
6. O=C(Oc1ccc([N+](=O)[O-])cc1)c1ccc(CBr)cc1

### Response
1: 97.2% [2.5 µM] (inactive); 2: 112% (inactive); 3: 111% (inactive); 4: 106% (inactive); 5: 110% (inactive); 6: 84.9% (inactive)

Observed growth, MDA-MB-468 breast, O=P(O)(c1ccccc1)c1ccccc1I : 89.5% (inactive)

---

Kindly state growth for each of the entries shown.
- Test system: ACHN renal
- protocol-notes: NCI-60 one-dose screen, 48 h (100 = growth as untreated, 0 = no growth, -100 = all killed)
- experimental-context: 10 µM
- Experimental: Growth inhibition of the ACHN human tumor cell line is measured as a screen for anti-cancer activity. Cells are grown in 96 well plates and exposed to the test compound for 48 hours. Compounds are tested at a single concentration, which is 10^-5 M for most compounds. The reported endpoint is percent growth (GI% or GIPRCNT), where numbers from 0 - 100% represent growth inhibition, and numbers from -100% - 0 represent cell death. For example, a value of 40 represents 60% growth inhibition. […]
Compounds without any hit were thinned out: in the full panel of roughly 83,000, 20% have a hit. Active and inactive are the calls of the source. Rule for the calls: active = growth percent below 10; inactive = the rest.

>>> value("O=C1NC(=S)S/C1=C\\c1cn(-c2ccccc2)nc1-c1ccc([N+](=O)[O-])cc1")
"12.6% (inactive)"
>>> value("Fc1ccc(/C=C/c2nc3ccccc3n3c(-c4ccc(Cl)cc4)nnc23)cc1")
"47.5% (inactive)"
>>> value("COc1ccc(Cc2nn(CC(=O)N/N=C/c3ccc([N+](=O)[O-])cc3)c(=O)c3c(C)noc23)cc1")
"47.7% (inactive)"
>>> value("COc1ccc(C2c3sc4ccc(C)cc4c3Oc3nc[nH]c(=O)c32)cc1 (stereo unspecified)")
"106% (inactive)"
>>> value("COc1ccc(C2OC[C@@]3(C)C4CC[C@]5(C)C(CC=C6C7CC(C)(C)CC[C@]7(C(=O)O)CC[C@]65C)[C@@]4(C)C[C@@H](O)[C@@H]3O2)cc1 (stereo partly specified)")
"56.8% (inactive)"
>>> value("Fc1ccc(-c2csc(Nc3cccc(Nc4nc(-c5ccc(F)cc5)cs4)c3)n2)cc1")
"51.8% (inactive)"
>>> value("CC(C)(C)c1cc(/C=C2\\S/C(=N/c3ncn[nH]3)NC2=O)cc(C(C)(C)C)c1O")
"18.2% (inactive)"
>>> value("O=C(CC(=O)Nc1ccc(Oc2ncnc3scc(Nc4n[nH]c(=S)s4)c23)cc1)Nc1ccc(Cl)cc1")
"77.4% (inactive)"

List reported growth for each of these compounds:
1. Cc1ccc2c(c1)C(=O)/C(=C/c1ccc([N+](=O)[O-])cc1)S2
2. Cn1cc(-c2cc(N)n3nc(-c4cn(C)c5ccccc45)cc3n2)c2cc(F)ccc21
3. O=C(CSc1nc2ccccc2c(=O)n1-c1ccc(Cl)cc1)Nc1ccc(-c2nc3ccc([N+](=O)[O-])cc3[nH]2)cc1

### Response
["102% (inactive)", "-89.4% (active)", "45.5% (inactive)"]
